Measured melting point, listed per entry for reference.
metric_name: melting point

compound="C=CCN1C(=O)NC(c2ccccc2)(c2ccc(S(C)(=O)=O)cc2)C1=O (stereo not shown) [Compound 8]" measured_value="129 to 130 °C"
compound="CN1C(=O)NC(c2ccccc2)(c2ccc(S(C)(=O)=O)cc2)C1=O (stereo not shown) [Compound 5]" measured_value="212 to 214 °C"
compound="CCN1C(=O)NC(c2ccccc2)(c2ccc(S(C)(=O)=O)cc2)C1=O (stereo not shown) [Compound 6]" measured_value="91 to 92 °C"
compound="CCCN1C(=O)NC(c2ccccc2)(c2ccc(S(C)(=O)=O)cc2)C1=O (stereo not shown) [Compound 7]" measured_value="82 to 83 °C"
